Biological target: Tryptase beta-1 (Homo sapiens, UniProt Q15661)
Sequence (Q15661 whole entry): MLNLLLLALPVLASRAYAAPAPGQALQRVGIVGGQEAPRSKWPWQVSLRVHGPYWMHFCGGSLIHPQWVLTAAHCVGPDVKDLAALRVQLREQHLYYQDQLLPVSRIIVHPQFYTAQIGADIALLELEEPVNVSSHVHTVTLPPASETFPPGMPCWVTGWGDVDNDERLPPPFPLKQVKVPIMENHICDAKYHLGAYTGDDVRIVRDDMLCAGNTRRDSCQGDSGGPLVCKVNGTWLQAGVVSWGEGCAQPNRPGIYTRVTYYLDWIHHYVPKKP
Test: Inhibitory activity of compound was determined against human Tryptase beta
metric.name: pIC50
# log scale: pIC50 equals minus log10 of the concentration in mol/L

Param item = CC(=O)N1CCC[C@@H]1C(=O)N[C@@H](CCCN=C(N)N)C(=O)c1nc2ccccc2s1 ; retrieve measured pIC50.
8.70

====

Catalogue of compounds with associated Ki
Biological target: Tryptase beta-1 (Homo sapiens, UniProt Q15661)
Test: In vitro inhibition of human Tryptase beta.
Numbers only; they are read as nM.

Solved cases (4 shown):
CC(=O)N1CCC[C@H]1C(=O)N[C@@H](CCCN=C(N)N)C(=O)c1nc2ccccc2s1 | 19
N=C(N)NCCCC(NC(=O)C1CCCC1)C(=O)c1nc2ccccc2s1 (centres undefined) | 88
CC(=O)N[C@@H](CC(C)C)C(=O)N[C@@H](CCCN=C(N)N)C(=O)c1nc2ccccc2s1 | 41
CN[C@H](Cc1ccccc1)C(=O)N1CCC[C@H]1C(=O)N[C@@H](CCCN=C(N)N)C(=O)c1nc2ccccc2s1 | 6.5

Ki lookup needed for CC(=O)N1CC=C[C@H]1C(=O)N[C@@H](CCCN=C(N)N)C(=O)c1nc2ccccc2s1 , thanks.
38

Which Ki value belongs to N=C(N)c1ccc2nc(Cc3nc4ccc(C(=N)N)cc4[nH]3)[nH]c2c1 ?
140
